Molecular target: ATP-dependent translocase ABCB1 (Homo sapiens, UniProt P08183)
Sequence (P08183 whole entry): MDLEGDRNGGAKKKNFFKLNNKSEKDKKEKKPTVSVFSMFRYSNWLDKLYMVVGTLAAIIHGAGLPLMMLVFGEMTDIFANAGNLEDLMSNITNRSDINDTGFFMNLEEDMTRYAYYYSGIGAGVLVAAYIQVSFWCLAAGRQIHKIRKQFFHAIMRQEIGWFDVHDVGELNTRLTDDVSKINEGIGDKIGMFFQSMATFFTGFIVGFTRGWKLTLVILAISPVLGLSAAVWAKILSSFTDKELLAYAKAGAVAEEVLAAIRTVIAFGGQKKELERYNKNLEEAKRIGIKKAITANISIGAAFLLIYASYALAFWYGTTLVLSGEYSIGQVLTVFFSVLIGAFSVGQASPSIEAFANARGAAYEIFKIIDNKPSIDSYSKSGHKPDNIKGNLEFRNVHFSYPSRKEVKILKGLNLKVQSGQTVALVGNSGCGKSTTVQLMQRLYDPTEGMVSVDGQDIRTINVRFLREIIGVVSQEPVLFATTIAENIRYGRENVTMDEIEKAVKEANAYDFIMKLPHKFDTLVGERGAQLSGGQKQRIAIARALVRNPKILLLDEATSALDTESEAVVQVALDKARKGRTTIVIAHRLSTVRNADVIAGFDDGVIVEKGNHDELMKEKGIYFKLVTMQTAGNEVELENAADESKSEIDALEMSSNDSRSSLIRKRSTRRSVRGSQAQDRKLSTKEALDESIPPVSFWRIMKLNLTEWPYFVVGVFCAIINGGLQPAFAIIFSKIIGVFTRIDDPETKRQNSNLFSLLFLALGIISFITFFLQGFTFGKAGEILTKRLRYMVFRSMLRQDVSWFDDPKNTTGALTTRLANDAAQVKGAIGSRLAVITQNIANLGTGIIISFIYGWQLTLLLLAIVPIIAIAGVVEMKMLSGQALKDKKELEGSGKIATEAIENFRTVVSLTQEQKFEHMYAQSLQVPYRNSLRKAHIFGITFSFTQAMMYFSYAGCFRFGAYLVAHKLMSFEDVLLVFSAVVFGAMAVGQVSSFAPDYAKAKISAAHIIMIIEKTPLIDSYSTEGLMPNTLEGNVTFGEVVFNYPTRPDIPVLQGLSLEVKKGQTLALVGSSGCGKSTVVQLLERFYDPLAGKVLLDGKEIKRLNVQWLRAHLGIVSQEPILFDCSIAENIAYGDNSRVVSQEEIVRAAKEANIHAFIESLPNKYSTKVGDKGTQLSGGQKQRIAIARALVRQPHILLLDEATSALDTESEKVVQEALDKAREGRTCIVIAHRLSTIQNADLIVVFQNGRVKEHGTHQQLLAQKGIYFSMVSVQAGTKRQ
Assay: TP_TRANSPORTER: inhibition of Verapamil binding in membranes from Vinblastine-induced Caco-2 cells
Assay type: functional, cell membranes, Membrane
Conditions: read-out: Ki2
quantity-name: pKi
// pKi here means minus log10 of the molar concentration (mol/L)

Ask | Form field: reported pKi of CC(C)NCC(O)COc1ccc(CCNC(=O)NC(C)C)cc1 (stereo unspecified)
Reply | 2.49

* * *

Target: ATP-dependent translocase ABCB1 (Homo sapiens, UniProt P08183)
Assay: TP_TRANSPORTER: inhibition of Verapamil binding in membranes from Vinblastine-induced Caco-2 cells
Assay type: functional, cell membranes, Membrane
Conditions: read-out: Ki1
quantity-name: pKi
// pKi here means minus log10 of the molar concentration (mol/L)

Ask | Form field: reported pKi of CC(C)NCC(O)COc1ccc(CCNC(=O)NC(C)C)cc1 (stereo unspecified)
Reply | 5.26
